# assay-details: adipocyte viability effects, profiling panel, cell-based, 3T3-L1 adipocytes, calcein-AM fluorescence, 48 h, basal (AID 1163); further: test concentration not given here
# condition-parameters: 3T3-L1 adipocytes viability, higher = more signal
value-kind: z-score
Form: value (number only, do not type unit).

Some compounds with known z-score results, for comparison:
compound	z-score
CC(C)C(CO)N1C(=O)[C@@H]2C3C(=O)OCCC/C=C\[C@H]3OC23C=CCN(C(C)(C)C)C(=O)[C@@H]13 (some centres not stated)	-0.496
COc1ccc([Si](C)(C)[C@@H]2[C@@H](CC(=O)N(CCO)Cc3ccccc3)O[C@]3(C(=O)N(c4ccccc4)c4ccccc43)[C@H]2C)cc1	1.11
COCCCNC(=O)[C@@]1(Cc2ccccc2CN=[N+]=[N-])N=C(c2ccc(OCCCO)cc2)O[C@H]1c1ccccc1	0.759
C=C(/C(=C/C[C@H](OC(C)=O)c1ccccc1OCCO)c1cc(C(=O)OC)ccc1OC)C(C)C	1.77
COCCOC(=O)N1C(=O)[C@@]2(c3cc(C#CC4=CCCCC4)ccc31)[C@H](C(N)=O)[C@H]1C(=O)O[C@H](c3ccccc3)[C@H](c3ccccc3)N1[C@@H]2c1ccccc1OCCO	0.619
[N-]=[N+]=NCc1ccccc1[C@@H]1OC(c2ccc(OCCCO)cc2)=N[C@]1(CCS(=O)(=O)c1ccccc1)C(=O)NCC(O)CO (some centres not stated)	0.273

Okay, next one:
(Q) For the compound shown here, CO[C@H]1O[C@H](CO)[C@@H](OC(=O)Nc2ccccc2-c2ccccc2)[C@H](OC(=O)Nc2ccc3c(c2)OCO3)[C@H]1OC(=O)Nc1ccc2c(c1)OCO2 , give the reported z-score.
(A) -0.31

----------
Consider the following molecules and their measured composite z-score readings.
# target-desc: E3 ubiquitin-protein ligase XIAP (Homo sapiens) (UniProt P98170)
# Sequence (P98170 whole entry, looked up): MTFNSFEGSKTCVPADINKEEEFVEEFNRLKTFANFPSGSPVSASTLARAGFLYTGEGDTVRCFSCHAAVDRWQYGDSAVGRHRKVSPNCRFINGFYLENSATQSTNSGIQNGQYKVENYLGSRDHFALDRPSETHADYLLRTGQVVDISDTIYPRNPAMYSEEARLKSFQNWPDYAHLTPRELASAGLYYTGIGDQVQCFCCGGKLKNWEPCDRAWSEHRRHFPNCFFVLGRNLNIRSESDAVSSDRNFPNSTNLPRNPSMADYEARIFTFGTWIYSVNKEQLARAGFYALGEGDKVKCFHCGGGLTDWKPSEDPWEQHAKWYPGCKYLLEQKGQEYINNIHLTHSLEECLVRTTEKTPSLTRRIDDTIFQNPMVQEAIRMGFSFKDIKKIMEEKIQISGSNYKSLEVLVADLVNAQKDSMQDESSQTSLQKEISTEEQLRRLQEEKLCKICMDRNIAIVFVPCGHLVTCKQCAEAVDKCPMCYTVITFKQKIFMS
# assay-details: XIAP binders, primary screen, biophysical, small-molecule microarray, fluorescence 635 nm (AID 1181);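 further: score merges 667 nm emission and signal to noise over triplicate slides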
# condition-parameters: small-molecule microarray binding, higher = more signal
Form: value (number only, do not type unit).

Some molecules with known composite z-score results, for comparison:
molecule	composite z-score
CCOC(=O)C1=CC[C@@H](c2ccc(OCc3ccccc3)c(OC)c2)N(S(=O)(=O)c2ccc(C)cc2)[C@H]1c1ccc(SC)cc1	0.307
CCCCN1CC=CC23O[C@@H]4/C=C\CCC(C)OC(=O)C4[C@H]2C(=O)N(C(CO)C(C)C)[C@@H]3C1=O (some centres not stated)	0.48
O=C1OCC=C[C@H]2OC34C=CCN(Cn5nnc6ccccc65)C(=O)[C@H]3N(CCCO)C(=O)[C@@H]4[C@@H]12 (some centres not stated)	-0.105
COCCCNC(=O)[C@@]1(Cc2ccccc2N=[N+]=[N-])COC(c2ccc(OCCCO)cc2)=N1	0.0049
COCCOC(=O)N1C(=O)[C@@]2(c3cc(C#CCCO)ccc31)[C@H](C(=O)Nc1nc3ccccc3s1)[C@H]1C(=O)O[C@H](c3ccccc3)[C@H](c3ccccc3)N1[C@@H]2c1ccccc1OCCO	-0.115
COC(=O)[C@@]1(Cc2ccc(OC)cc2)[C@H]2c3cc(C(=O)N4CCCC4)n(Cc4cccc5ccccc45)c3C[C@H]2CN1C(=O)c1ccccc1	0.5

Okay, next one:
(Q) For the molecule shown here, C=C(C)c1cc2c(c(CCCCCC)n1)[Si](C(C)C)(C(C)C)OC2 , give the reported composite z-score.
(A) 0.0623

From: PubChem BioAssay
